tested.system: Aromatase (Homo sapiens, UniProt P11511)
protocol: Inhibition of aromatase in human placental microsomes at 20 ug/ml relative to control
Parameters: species or system Placenta; scale not given: the % may be the effect or the level left
readout.kind: Activity (%)
One number for each entry, in %.

mol.smiles	output.unit	observed.value
COc1c(O)cc2oc3cc(O)c(CC=C(C)C)c(O)c3c(=O)c2c1CC=C(C)C	%	22.2
CC(C)=CCc1c(O)cc2oc3c(CC=C(C)C)c(O)c(O)c(CC=C(C)C)c3c(=O)c2c1O	%	23.9
CC(C)=CCc1c(O)c(CC=C(C)C)c2oc3c(O)cccc3c(=O)c2c1O	%	82.6

We now examine a further compound.
Notebook: CC(C)=CCc1c(O)c(CC=C(C)C)c2oc3c(O)ccc(O)c3c(=O)c2c1O , Activity read as 75.9

====

tested.system: Aromatase (Homo sapiens)
protocol: Inhibition of aromatase in human placental microsomes
Design: species or system Placenta
readout.kind: pIC50
One number for each entry, as −log10 of the molar value.

For each of the compounds below, state pIC50.
1. COc1c(O)cc2oc3cc(O)c(CC=C(C)C)c(O)c3c(=O)c2c1CC=C(C)C
2. CC(C)=CCc1c(O)cc2oc3c(CC=C(C)C)c(O)c(O)c(CC=C(C)C)c3c(=O)c2c1O

Reply:
[4.68, 4.60]

Batch of 2 compounds: report pIC50 for each.
1. COc1c(O)cc2oc3cc(O)c(CC=C(C)C)c(O)c3c(=O)c2c1CCC(C)(C)O
2. CC(C)=CCc1c(O)cc2oc3cc(O)c(O)c(CC=C(C)C)c3c(=O)c2c1O

Reply:
5.28
5.16

====

tested.system: Aromatase (Homo sapiens, UniProt P11511)
Sequence (P11511 whole entry): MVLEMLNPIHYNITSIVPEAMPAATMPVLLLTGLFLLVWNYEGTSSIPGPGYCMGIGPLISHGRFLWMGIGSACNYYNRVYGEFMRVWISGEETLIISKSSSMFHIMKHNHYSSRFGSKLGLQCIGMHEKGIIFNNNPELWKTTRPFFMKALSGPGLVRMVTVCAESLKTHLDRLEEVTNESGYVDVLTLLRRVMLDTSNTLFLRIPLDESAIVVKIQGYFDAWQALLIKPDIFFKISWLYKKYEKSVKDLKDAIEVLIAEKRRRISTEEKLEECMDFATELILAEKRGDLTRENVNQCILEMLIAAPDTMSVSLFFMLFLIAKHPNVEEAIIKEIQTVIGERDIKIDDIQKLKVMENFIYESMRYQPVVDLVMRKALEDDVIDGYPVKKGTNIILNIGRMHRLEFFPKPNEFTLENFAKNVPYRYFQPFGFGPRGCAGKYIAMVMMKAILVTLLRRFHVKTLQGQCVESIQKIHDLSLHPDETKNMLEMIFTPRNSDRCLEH
protocol: Inhibition of aromatase over-expressed in human SKBR3 cells at 50 uM relative to control
Assay type: cell-based
Parameters: scale not given: the % may be the effect or the level left
condition.details: SK-BR-3, human; read-out: Activity
readout.kind: activity at 50 µM
Units required after the number.

mol.smiles	activity at 50 µM
COc1c(O)cc2oc3cc(O)c(CC=C(C)C)c(O)c3c(=O)c2c1CCC(C)(C)O	50.7%

Would you be so kind as to report activity at 50 µM for each listed record?
1. CC(C)=CCc1c(O)cc2oc3cc(O)c(O)c(CC=C(C)C)c3c(=O)c2c1O
2. COc1c(O)cc2oc3cc(O)c(CC=C(C)C)c(O)c3c(=O)c2c1CC=C(C)C
3. CC(C)=CCc1c(O)cc2oc3c(CC=C(C)C)c(O)c(O)c(CC=C(C)C)c3c(=O)c2c1O

Reply:
1. -0.5%
2. 59.4%
3. 32.3%

====

tested.system: UniProt:P11511
protocol: Inhibition of aromatase in human placental microsomes at 20 ug/ml relative to control
Design: species or system Placenta; scale not given: the % may be the effect or the level left
Please assign false whenever Activity is at or above 60%, and true whenever it is below.

mol.smiles	assigned.label
COc1c(CC=C(C)C)c(O)c2c(=O)c3cccc(O)c3oc2c1CC=C(C)C	true
CC(C)=CCC/C(C)=C/Cc1c(O)cc2oc3c(O)ccc(O)c3c(=O)c2c1O	false
CC(C)=CCc1c(O)cc2oc3cc(O)c(O)c(CC=C(C)C)c3c(=O)c2c1O	true
COc1c(O)cc2oc3cc(O)c4c(c3c(=O)c2c1CC=C(C)C)OC(C)(C)CC4	true
CC(C)=CCc1c(O)cc2oc3c(CC=C(C)C)c(O)c4c(c3c(=O)c2c1O)C=CC(C)(C)O4	false
COc1c(O)cc2oc3cc(O)c(CC=C(C)C)c(O)c3c(=O)c2c1CCC(C)(C)O	true
COc1c(CC=C(C)C)c(O)c2c(=O)c3c(O)ccc(O)c3oc2c1CC=C(C)C	true

Task item: Please determine if CC(C)=CCC/C(C)=C/Cc1c(O)cc2oc3c(O)cccc3c(=O)c2c1O is below 60% in terms of Activity.
Reply: false
